target: glucosylceramide synthase (GCS) (Homo sapiens, UniProt Q16739); construct: The obtained supernatant was used; assay: GCS enzyme inhibition assay (A549 cell lysate, NBD C6-ceramide, HPLC fluorescence); details: inhibitory activity against GCS, 37° C., 90 minutes
Sequence (Q16739 whole entry): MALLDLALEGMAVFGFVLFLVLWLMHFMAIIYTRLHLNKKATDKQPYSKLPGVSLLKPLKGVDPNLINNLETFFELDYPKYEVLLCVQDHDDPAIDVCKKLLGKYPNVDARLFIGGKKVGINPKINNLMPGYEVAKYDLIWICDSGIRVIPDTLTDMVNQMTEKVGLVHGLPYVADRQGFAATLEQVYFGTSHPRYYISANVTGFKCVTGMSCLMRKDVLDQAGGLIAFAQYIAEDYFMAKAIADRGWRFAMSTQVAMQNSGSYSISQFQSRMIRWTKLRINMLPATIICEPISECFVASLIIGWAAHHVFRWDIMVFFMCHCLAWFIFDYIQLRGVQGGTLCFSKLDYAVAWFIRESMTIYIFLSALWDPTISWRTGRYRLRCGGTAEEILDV
pIC50: −log10 of the molar value.
VALUE_TYPE: pIC50

INSERT INTO assay_data (molecule, recorded_measurement) VALUES
  ('COc1cc(-c2ccc3c(c2)OCCC3NC(=O)O[C@@H]2CN3CCC2CC3)ccc1Cl (stereo partly shown)', 8.76),
  ('COc1cc2c(cc1-c1ccc(OCC(C)C)cc1)OCC(C)(C)C2NC(=O)O[C@@H]1CN2CCC1CC2 (stereo partly shown)', 9.72),
  ('COc1cc(-c2ccc3c(c2)OCCC3NC(=O)O[C@@H]2CN3CCC2CC3)ccn1 (stereo partly shown)', 8.44),
  ('COc1ccc(-c2ccc3c(c2)OCC(C)(C)C3NC(=O)O[C@@H]2CN3CCC2CC3)cc1 (stereo partly shown)', 9.30),
  ('O=C(NC1CCOc2cc(-c3ccc(C4CCOCC4)cc3)ccc21)O[C@@H]1CN2CCC1CC2 (stereo partly shown)', 8.83),
  ('CC1(C)COc2cc(-c3ccc(F)cc3F)ccc2C1NC(=O)O[C@@H]1CN2CCC1CC2 (stereo partly shown)', 9.31),
  ('CN(C)c1cccc(-c2ccc3c(c2)OCCC3(C)NC(=O)O[C@@H]2CN3CCC2CC3)c1 (stereo partly shown)', 9.30),
  ('O=C(NC1CCOc2ccc(-c3ccc(Cl)cc3)cc21)O[C@@H]1CN2CCC1CC2 (stereo partly shown)', 8.03),
  ('O=C(NC1CCOc2cc(-c3ccsc3)ccc21)O[C@@H]1CN2CCC1CC2 (stereo partly shown)', 8.88),
  ('O=C(NC1CCSc2cc(-c3coc4ccccc34)ccc21)O[C@@H]1CN2CCC1CC2 (stereo partly shown)', 8.93),
  ('CCCCOc1cccc(F)c1-c1ccc2c(c1)OCC(C)(C)C2NC(=O)O[C@@H]1CN2CCC1CC2 (stereo partly shown)', 9.11),
  ('COc1ccc(-c2ccc3c(c2)OCC(C)(C)C3NC(=O)O[C@@H]2CN3CCC2CC3)c(OC)c1 (stereo partly shown)', 9.07),
  ('CC1(C)COc2cc(-c3cccc(C#N)c3)ccc2C1NC(=O)O[C@@H]1CN2CCC1CC2 (stereo partly shown)', 9.38),
  ('O=C(NC1CCOc2cc(-c3ccc(F)c(F)c3F)ccc21)O[C@@H]1CN2CCC1CC2 (stereo partly shown)', 8.41),
  ('CC1(C)COc2cc(-c3ccc(C4CCOCC4)cc3)ccc2C1NC(=O)O[C@@H]1CN2CCC1CC2 (stereo partly shown)', 9.55),
  ('CC1(C)COc2cc(-c3ccc4cc[nH]c4c3)ccc2C1NC(=O)O[C@@H]1CN2CCC1CC2 (stereo partly shown)', 9.05);

====

biological target: glucosylceramide synthase (GCS) (Homo sapiens, UniProt Q16739); construct: The obtained supernatant was used; test: GCS enzyme inhibition assay (A549 cell lysate, NBD C6-ceramide, HPLC fluorescence); conditions: inhibitory activity against GCS, 37° C., 90 minutes
VALUE_TYPE: IC50 (nM)

INSERT INTO assay_data (compound, recorded_measurement) VALUES
  ('O=C(NC1CCSc2cc(-c3cccc(C(F)(F)F)c3)ccc21)O[C@@H]1CN2CCC1CC2 (stereo partly shown)', 1.07),
  ('CC1(NC(=O)O[C@@H]2CN3CCC2CC3)CCOc2cc(-c3cccc(F)c3)ccc21 (stereo partly shown)', 0.7),
  ('COc1ccc(-c2ccc3c(c2)OCC(C)(C)C3NC(=O)O[C@@H]2CN3CCC2CC3)c(OC)n1 (stereo partly shown)', 1.15),
  ('COc1ccc(-c2ccc3c(c2)OCC(C)(C)C3NC(=O)O[C@@H]2CN3CCC2CC3)cc1OC (stereo partly shown)', 2.84),
  ('CN1C(=O)COc2ccc(-c3ccc4c(c3)OCC(C)(C)C4NC(=O)O[C@@H]3CN4CCC3CC4)cc21 (stereo partly shown)', 1.51),
  ('CC1(C)COc2cc(-c3ccc(OCC(F)(F)F)nc3)ccc2C1NC(=O)O[C@@H]1CN2CCC1CC2 (stereo partly shown)', 0.17),
  ('COc1cccc(-c2ccc3c(c2)OCC(C)(C)C3NC(=O)O[C@@H]2CN3CCC2CC3)c1 (stereo partly shown)', 0.31);
